# assay system: phthalyl amidase (Xanthobacter agilis, UniProt P0C2Y0)
# Sequence (P0C2Y0 2-453): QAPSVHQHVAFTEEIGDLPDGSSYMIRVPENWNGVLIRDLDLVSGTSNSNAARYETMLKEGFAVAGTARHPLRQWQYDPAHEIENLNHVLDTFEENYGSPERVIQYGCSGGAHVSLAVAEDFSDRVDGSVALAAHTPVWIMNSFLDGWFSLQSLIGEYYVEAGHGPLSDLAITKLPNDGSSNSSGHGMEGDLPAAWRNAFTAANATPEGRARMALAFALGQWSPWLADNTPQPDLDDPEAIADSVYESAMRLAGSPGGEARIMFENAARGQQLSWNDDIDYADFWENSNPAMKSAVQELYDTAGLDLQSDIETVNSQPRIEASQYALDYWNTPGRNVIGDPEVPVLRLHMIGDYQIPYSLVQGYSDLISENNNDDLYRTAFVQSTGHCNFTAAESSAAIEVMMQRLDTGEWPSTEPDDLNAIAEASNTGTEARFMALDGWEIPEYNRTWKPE
# method notes: Substrate specificity of phthalyl amidase (Tables 9-11)
# Type: biochemical
# test context: Table 10, phthalyl amides; 30° C., pH 8.0
assay metric: Relative Activity

Inquiry: // lookup Relative Activity for COC(=O)[C@H](Cc1ccccc1)NC(=O)[C@H](CC(=O)O)NC(=O)c1ccccc1C(=O)O [XIV]
Reply text: 118.5

Inquiry: Similarly, CC(C)NC(=O)c1ccccc1C(=O)O [XII] ?
Reply text: 9.7

Inquiry: Try the compound CSCCC(NC(=O)c1ccccc1C(=O)O)C(=O)O (racemic) [XV]
Reply text: 220.1

Inquiry: Let us now turn to CCCCCCC(C(=O)O)n1cnc(NC(=O)c2ccccc2C(=O)O)c1 (stereo not shown) [XIII]
Reply text: 1027.2

Inquiry: Item: O=C(O)c1ccccc1C(=O)NCc1ccccc1
Reply text: 40.2

Inquiry: Now give it for O=C(O)CNC(=O)c1ccccc1C(=O)O [XI] too.
Reply text: 31.8

Inquiry: How about O=C(O)c1ccccc1C(=O)Nc1ccc([N+](=O)[O-])cc1 [VIII] ?
Reply text: 544.6

Inquiry: Now the same for O=C(O)C1=C(Cl)CCC2C(NC(=O)c3ccccc3C(=O)O)C(=O)N12 (stereo not shown) [VII]
Reply text: 100.0

Continuing:
Inquiry: Which Relative Activity value is on record for O=C(O)c1ccccc1C(=O)Nc1ccc([N+](=O)[O-])c(C(=O)O)c1 [II] ?
Reply text: 295.7

Inquiry: What do we get for CC(C)CC(NC(=O)c1ccccc1C(=O)O)C(=O)O (racemic) [XVI] ?
Reply text: 90.2

* * *

In this section we review reported % of Control Activity values for a set of molecules.
# assay system: phthalyl amidase (Xanthobacter agilis, UniProt P0C2Y0)
# method notes: Influence of effectors and organic solvents on phthalyl amidase activity
# Format: biochemical
# test context: 1 mM agent
Just the number in %, nothing appended.

In the examples that follow, each entry is paired with its recorded % of Control Activity.
Inquiry: What is its % of Control Activity for phthalyl amidase (Xanthobacter agilis, UniProt P0C2Y0)? Entry: [Cl][Ni][Cl]
Reply text: 94

Inquiry: Please do the same for [Cl][Cu][Cl] as well.
Reply text: 36

More entries:
Inquiry: Fill in the recorded % of Control Activity for this molecule, with phthalyl amidase (Xanthobacter agilis, UniProt P0C2Y0) as test system: [Cl-].[Cl-].[Co+2]
Reply text: 101

Inquiry: Moving on to [Cl-].[K+] [KCl, reference compound]
Reply text: 100

Inquiry: Same for [Cl-].[Cl-].[Zn+2]
Reply text: 100

Inquiry: Next entry: [Ca+2].[Cl-].[Cl-]
Reply text: 89

Inquiry: And the next one, [Cl][Mn][Cl] ?
Reply text: 84

Inquiry: Same thing, different molecule: [Cl][Fe][Cl]
Reply text: 102

Inquiry: Let us now turn to [Cl-].[Cl-].[Mg+2]
Reply text: 102

Inquiry: Can you check O=C(O)c1cc[c]([Hg][OH])cc1 [p-HMB, parahydroxy mercuric benzoate] next?
Reply text: 65

Inquiry: # repeat for [Cl][Fe]([Cl])[Cl]
Reply text: 96

* * *

# assay system: UniProtKB P0C2Y0
# method notes: Substrate specificity of phthalyl amidase (Tables 9-11)
# Assay type: biochemical
assay metric: acceptance as substrate of the enzyme

Inquiry: Reported acceptance as substrate of the enzyme for CCCCCCC(C(=O)O)n1cnc(NC(=O)c2ncccc2C(=O)O)c1 (stereo not drawn) [Compound XX] : what is it?
Reply text: acceptable

Inquiry: Repeat with CCCCCCC(C(=O)O)n1cnc(NC(=O)c2cccc(O)c2C(=O)O)c1 (stereo not drawn) [XXI]
Reply text: acceptable

* * *

# assay system: UniProt P0C2Y0
# method notes: Kinetic parameters for phthalyl amidase
# Assay type: biochemical
# test context: Table 12; 32° C., pH 8.2
assay metric: Km
Hi, when you answer, please include the unit after the number. Thanks!

Inquiry: Bench note: what Km did O=C(O)C1=C(Cl)CCC2C(NC(=O)c3ccccc3C(=O)O)C(=O)N12 (centres unmarked) [III] show?
Reply text: 900 µM

* * *

Below, each entry is listed with its recorded Vmax.
# assay system: phthalyl amidase (Xanthobacter agilis)
# method notes: Kinetic parameters for phthalyl amidase
# Type: biochemical
# test context: Table 12; 32° C., pH 8.2
Response body: numeric value in μmol/sec/μmol, unit text excluded.

Completed entries (count: 4):
Inquiry: What value of Vmax has been recorded for this entry: O=C(O)C1=C(Cl)CCC2C(NC(=O)c3ccccc3C(=O)O)C(=O)N12 (centres unmarked) [III]
Reply text: 7.6

Inquiry: Now the compound CCCCCCC(C(=O)O)n1cnc(NC(=O)c2ccccc2C(=O)O)c1 (centres unmarked) [XVII]
Reply text: 1.41

Inquiry: Queued: O=C(O)CNC(=O)c1ccccc1C(=O)O [XI]
Reply text: 0.27

Inquiry: Repeat for the following compound: CCCCCCC(C(=O)O)n1cnc(NC(=O)c2c(F)cccc2C(=O)O)c1 (centres unmarked) [XVIII]
Reply text: 1.94

Next, consider the following compound.
Inquiry: Looking for the measured Vmax of O=C(O)c1ccccc1C(=O)Nc1ccc([N+](=O)[O-])c(C(=O)O)c1 [II] , can you help?
Reply text: 5.95

* * *

# assay system: phthalyl amidase (Xanthobacter agilis, UniProt P0C2Y0)
# method notes: Substrate specificity of phthalyl amidase (Tables 9-11)
# Format: biochemical
# test context: Table 11, aromatic ring substituted amides; 30° C., pH 8.0
Note to self: use criterion met only for Relative Activity readings below 0.2; a reading exactly at 0.2 still gets criterion not met.

Answered examples (4):
Inquiry: # check: Relative Activity < 0.2 for CCCCCCC(C(=O)O)n1cnc(NC(=O)c2ccccc2C(=O)O)c1 (centres unmarked) [XVII]
Reply text: criterion not met

Inquiry: Then what about the molecule CCCCCCC(C(=O)O)n1cnc(NC(=O)c2cccc(C(=O)O)c2)c1 (centres unmarked) [XXIV] ?
Reply text: criterion met

Inquiry: Do the same for CCCCCCC(C(=O)O)n1cnc(NC(=O)c2c(F)cccc2C(=O)O)c1 (centres unmarked) [XVIII] please
Reply text: criterion not met

Inquiry: Please answer likewise for CCCCCCC(C(=O)O)n1cnc(NC(=O)c2cccc(O)c2)c1 (centres unmarked) [XXVI]
Reply text: criterion met

---
Inquiry: Identify whether the molecule CCCCCCC(C(=O)O)n1cnc(NC(=O)c2ccccc2)c1 (centres unmarked) [XXVIII] records Relative Activity below 0.2.
Reply text: criterion met

Inquiry: Would you mind doing CCCCCCC(C(=O)O)n1cnc(NC(=O)c2cccc(O)c2C(=O)O)c1 (centres unmarked) [XXI] as well?
Reply text: criterion not met

Inquiry: CCCCCCC(C(=O)O)n1cnc(NC(=O)c2cc(O)cc(O)c2)c1 (centres unmarked) [XXVII] , same question.
Reply text: criterion met

Inquiry: Queued: CCCCCCC(C(=O)O)n1cnc(NC(=O)c2ccccc2O)c1 (centres unmarked) [XXV]
Reply text: criterion met

Inquiry: Follow-up item: CCCCCCC(C(=O)O)n1cnc(NC(=O)c2ncccc2C(=O)O)c1 (centres unmarked) [Compound XX]
Reply text: criterion not met

Inquiry: Same thing, different molecule: CCCCCCC(C(=O)O)n1cnc(NC(=O)c2ccc(C(=O)O)cc2)c1 (centres unmarked) [XXIII]
Reply text: criterion met

* * *

# assay system: phthalyl amidase (Xanthobacter agilis)
# method notes: Substrate specificity of phthalyl amidase (Tables 9-11)
# Assay type: biochemical
# test context: Table 9, beta-lactams; 30° C., pH 8.0
Relative Activity values for the compounds below.

// worked examples, Relative Activity included
Inquiry: What value of Relative Activity has been recorded for this entry: O=C(O)CN1C(=O)C(NC(=O)c2ccccc2C(=O)O)C1CCc1ccco1 (centres unmarked) [drawing 6]
Reply text: 47.9

Inquiry: O=C(O)CN1C(=O)C(NC(=O)COc2ccccc2)C1CCc1ccco1 (centres unmarked) ?
Reply text: 0

Inquiry: Please answer likewise for O=C(O)CN1C(=O)C(NC(=O)Cc2ccccc2)C1CCc1ccco1 (centres unmarked)
Reply text: 0

Inquiry: Try this compound next: O=C(O)CN1C(=O)C(NC(=O)c2ccccc2)C1CCc1ccco1 (centres unmarked)
Reply text: 0

***
Inquiry: Recorded Relative Activity of O=C(O)C1=C(Cl)CCC2C(NC(=O)c3ccccc3C(=O)O)C(=O)N12 (centres unmarked) , please.
Reply text: 100

* * *

# assay system: phthalyl amidase (Xanthobacter agilis)
# method notes: Kinetic parameters for phthalyl amidase
# Format: biochemical
# test context: Table 12; 32° C., pH 8.2
assay metric: Km (µM)
# output: bare number, implied unit µM

Inquiry: # lookup: Km of O=C(O)c1ccccc1C(=O)Nc1ccc([N+](=O)[O-])c(C(=O)O)c1
Reply text: 50

Inquiry: Similarly, CCCCCCC(C(=O)O)n1cnc(NC(=O)c2c(F)cccc2C(=O)O)c1 (stereo not shown) ?
Reply text: 170

Inquiry: Another molecule to look at: O=C(O)CNC(=O)c1ccccc1C(=O)O
Reply text: 140

Attention now shifts to the item below.
Inquiry: Looking for the measured Km of CCCCCCC(C(=O)O)n1cnc(NC(=O)c2ccccc2C(=O)O)c1 (stereo not shown) , can you help?
Reply text: 90
